Provide the recorded pEC50 for the entries that follow.
- Test system: Leishmania donovani LdBOB promastigotes
- Experimental Details: In vitro drug sensitivity assay, L. donovani promastigotes (72 h, resazurin)
- Type: cell-based
- Run Conditions: Leishmania donovani; L. donovani promastigote; read-out: EC50
The meaning of pEC50 here: minus log10 of the concentration in molar units.

q: Can you share its pEC50? I mean this compound: O=[N+]([O-])c1cn2c(n1)OC[C@H](OCc1ccc(OC(F)(F)F)cc1)C2 [(R)-PA-824]
a: 6.80

q: Another compound to look at: O=[N+]([O-])c1cn2c(n1)OC[C@@H](OCc1ccc(OC(F)(F)F)cc1)C2 [(S)-PA-824, reference compound]
a: 6.05
